Task for the reader: assign each of the following compounds its reported viability at 30 µM.
# METHOD: Cytotoxicity against LPS-induced mouse RAW264.7 cells assessed as cell viability at 30 uM pretreated for 1 hr followed by LPS-challenge measured after 20 to 24 hrs by CellTiter 96 aqueous non-radioactive cell proliferation assay
# Type: cell-based
# COND: LPS-induced RAW264.7 cells, read-out: Activity
Number only, in %; omit the unit.

Task item: viability at 30 µM lookup needed for `S=C1c2ccccc2CN1C12CC3CC(CC1C3)C2` , thanks.
Reply: 94

Task item: viability at 30 µM lookup needed for Nc1cccc2c1CN(C1C3CC4CC(C3)CC1C4)C2=O (stereo not given) , thanks.
Reply: 99

Task item: viability at 30 µM lookup needed for CC(N1Cc2c(cccc2[N+](=O)[O-])C1=S)C12CC3CC(CC(C3)C1)C2 (stereo not given) , thanks.
Reply: 83

Task item: viability at 30 µM lookup needed for `O=C1c2cccc([N+](=O)[O-])c2CN1C12CC3CC(CC(O)(C3)C1)C2` , thanks.
Reply: 107

Task item: viability at 30 µM lookup needed for O=C1c2ccccc2CN1C1C2CC3CC(C2)CC1C3 (stereo not given) , thanks.
Reply: 75

Task item: viability at 30 µM lookup needed for CC(N1Cc2ccccc2C1=O)C12CC3CC(CC(C3)C1)C2 (stereo not given) , thanks.
Reply: 82

Task item: viability at 30 µM lookup needed for O=C1c2cccc([N+](=O)[O-])c2CN1C1C2CC3CC(C2)CC1C3 (stereo not given) , thanks.
Reply: 82

Task item: viability at 30 µM lookup needed for `O=C1c2cccc([N+](=O)[O-])c2CN1C12CC3CC(CC(C3)C1)C2` , thanks.
Reply: 114

Task item: viability at 30 µM lookup needed for `O=C1c2ccccc2CN1C12CC3CC(CC(O)(C3)C1)C2` , thanks.
Reply: 98

Task item: viability at 30 µM lookup needed for `O=C1c2ccccc2CN1CC12CC3CC(CC(C3)C1)C2` , thanks.
Reply: 81

Task item: viability at 30 µM lookup needed for CC(N1Cc2ccccc2C1=S)C12CC3CC(CC(C3)C1)C2 (stereo not given) , thanks.
Reply: 84

Task item: viability at 30 µM lookup needed for `O=C1c2cccc([N+](=O)[O-])c2CN1CC12CC3CC(CC(C3)C1)C2` , thanks.
Reply: 92

Task item: viability at 30 µM lookup needed for CC(N1Cc2c(cccc2[N+](=O)[O-])C1=O)C12CC3CC(CC(C3)C1)C2 (stereo not given) , thanks.
Reply: 81

Task item: viability at 30 µM lookup needed for `O=C1c2ccccc2CN1C12CC3CC(CC1C3)C2` , thanks.
Reply: 74

Task item: viability at 30 µM lookup needed for `O=C1c2cccc([N+](=O)[O-])c2CN1C12CC3CC(CC1C3)C2` , thanks.
Reply: 92

---

# Test system: RAW264.7
# METHOD: Antiinflammatory activity in mouse RAW264.7 cells assessed as reduction in LPS-induced nitrite production by measuring nitrite levels at 30 uM pretreated for 1 hr followed by LPS-challenge measured after 20 to 24 hrs by Griess assay relative to control
# Assay type: functional
# Parameters: scale not given: the % may be the effect or the level left
# note: boundary value 50% maps to Condition not met; Activity below it maps to Condition met

Task item: Does the reported Activity of the following molecule sit strictly below 50%? CC(N1Cc2c(cccc2[N+](=O)[O-])C1=S)C12CC3CC(CC(C3)C1)C2 (stereo not drawn)
Reply: Condition met

Task item: Does the reported Activity of the following molecule sit strictly below 50%? `O=C1c2ccccc2CN1C12CC3CC(CC(O)(C3)C1)C2`
Reply: Condition not met

Task item: Does the reported Activity of the following molecule sit strictly below 50%? `O=C1c2cccc([N+](=O)[O-])c2CN1C12CC3CC(CC(C3)C1)C2`
Reply: Condition met

Task item: Does the reported Activity of the following molecule sit strictly below 50%? `O=C1c2cccc([N+](=O)[O-])c2CN1C12CC3CC(CC(O)(C3)C1)C2`
Reply: Condition not met

Task item: Does the reported Activity of the following molecule sit strictly below 50%? Nc1cccc2c1CN(C1C3CC4CC(C3)CC1C4)C2=O (stereo not drawn)
Reply: Condition not met

Task item: Does the reported Activity of the following molecule sit strictly below 50%? O=C1c2ccccc2CN1C1C2CC3CC(C2)CC1C3 (stereo not drawn)
Reply: Condition not met

Task item: Does the reported Activity of the following molecule sit strictly below 50%? O=C1c2cccc([N+](=O)[O-])c2CN1C1C2CC3CC(C2)CC1C3 (stereo not drawn)
Reply: Condition met

Task item: Does the reported Activity of the following molecule sit strictly below 50%? CC(N1Cc2ccccc2C1=O)C12CC3CC(CC(C3)C1)C2 (stereo not drawn)
Reply: Condition not met

Task item: Does the reported Activity of the following molecule sit strictly below 50%? CC(N1Cc2ccccc2C1=S)C12CC3CC(CC(C3)C1)C2 (stereo not drawn)
Reply: Condition not met

Task item: Does the reported Activity of the following molecule sit strictly below 50%? CC(N1Cc2c(cccc2[N+](=O)[O-])C1=O)C12CC3CC(CC(C3)C1)C2 (stereo not drawn)
Reply: Condition met

Task item: Does the reported Activity of the following molecule sit strictly below 50%? `O=C1c2cccc([N+](=O)[O-])c2CN1CC12CC3CC(CC(C3)C1)C2`
Reply: Condition not met

---

# Organism: Danio rerio
# METHOD: Antiangiogenic activity in 24 hrs post fertilized zebra fish embryo harboring fli1:EGFP assessed as number of intersegmental vessel at 10 ug/ml after 24 hrs by fluorescence microscopic analysis
# Assay type: functional
Short version: Activity at least 20 is satisfied, less is not satisfied.

Task item: Kindly determine if Activity recorded for Nc1cccc2c1CN(C1C3CC4CC(C3)CC1C4)C2=O (stereo not given) is above or exactly 20.
Reply: not satisfied

Task item: Kindly determine if Activity recorded for `O=C1c2cccc([N+](=O)[O-])c2CN1C12CC3CC(CC1C3)C2` is above or exactly 20.
Reply: not satisfied

Task item: Kindly determine if Activity recorded for CC(N1Cc2c(cccc2[N+](=O)[O-])C1=S)C12CC3CC(CC(C3)C1)C2 (stereo not given) is above or exactly 20.
Reply: satisfied

Task item: Kindly determine if Activity recorded for `O=C1c2ccccc2CN1CC12CC3CC(CC(C3)C1)C2` is above or exactly 20.
Reply: not satisfied
